- System: SKBR3 cells
- test_name: Cell proliferation (Cell Titer Glow), SKBR3
- Format: cell-based
- particulars: Homo sapiens, SK-BR-3; IG compounds, cell killing, 72 h
- Experimental: Exemplary isoindolinone-glutarimide (IG) compounds of Table 1a, 1b and 1c were prepared and characterized according to the Examples herein. […]
experimental_readout: pIC50
For clarity, pIC50 is expressed as the negative log10 of concentration in mol/L.

Look over these answered cases.
O=C1CCC(N2Cc3c(ccc(CNC(=O)Nc4ccc5ccccc5c4)c3O)C2=O)C(=O)N1 (centres unmarked) :: 7.85
CNCCOCCc1ccc(NC(=O)NCc2ccc3c(c2)CN(C2CCC(=O)NC2=O)C3=O)cc1Cl (centres unmarked) :: 7.11
Cc1ccc(NC(=O)NCc2ccc3c(c2O)CN(C2CCC(=O)NC2=O)C3=O)cc1Cl (centres unmarked) :: 8.28
CC(C)c1cc(NC(=O)NCc2ccc3c(c2O)CN(C2CCC(=O)NC2=O)C3=O)ccc1C(F)(F)F (centres unmarked) :: 7.80

Endpoint output: pIC50 of O=C1CCC(N2Cc3c(ccc(CNC(=O)C(F)(F)c4ccc(Cl)cc4)c3O)C2=O)C(=O)N1 (centres unmarked) . Value?
6.35

Endpoint output: pIC50 of Cc1ccc(NC(=O)NCc2ccc3c(c2O)CN(C2CCC(=O)NC2=O)C3=O)cc1C(C)C (centres unmarked) . Value?
8.86

Endpoint output: pIC50 of O=C1CCC(N2Cc3c(ccc(CNC(=O)Nc4ccc(I)c(Cl)c4)c3O)C2=O)C(=O)N1 (centres unmarked) . Value?
7.77

Endpoint output: pIC50 of Cc1ccc(NC(=O)NCc2cc3c(cc2O)C(=O)N(C2CCC(=O)NC2=O)C3)cc1Cl (centres unmarked) . Value?
8.46

====

- System: CAL51 cells
- test_name: Degradation assay evaluated by immunofluorescence staining, CAL51
- Type: cell-based, human
- particulars: Homo sapiens, CAL-51, CAL51, 6 h
- Protocol: One day prior to treatment with compounds, black 96 well plates were coated with fibronectin (0.2 μg/ml in PBS) for 45 min at room temperature and subsequently washed with PBS. CAL-51 or SKBR3 cells were seeded at 30K cells/well (1001) and incubated overnight at 37° C. whereafter compounds were added reaching indicated concentrations. 6 h after treatment the medium was removed, cells were washed with PBS and fixed with 10% formalin for 20 mins at room temperature. […]
experimental_readout: Dmax

Look over these answered cases.
O=C1CCC(N2Cc3c(ccc(CNC(=O)Nc4cccc5ccccc45)c3O)C2=O)C(=O)N1 (centres unmarked) :: 93.7%
CNCCOCCc1ccc(NC(=O)OCc2ccc3c(c2)CN(C2CCC(=O)NC2=O)C3=O)cc1Cl (centres unmarked) :: 17.3%
CC(C)(C)c1cccc(NC(=O)NCc2ccc3c(c2O)CN(C2CCC(=O)NC2=O)C3=O)c1 (centres unmarked) :: 89.6%
Cc1ccc(NC(=O)NCc2ccc3c(c2)CN(C2CCC(=O)NC2=O)C3=O)cc1Cl (centres unmarked) :: 101%
CNc1c(CNC(=O)Nc2ccc(C)c(Cl)c2)ccc2c1CN(C1CCC(=O)NC1=O)C2=O (centres unmarked) :: 18.6%

CAL51 cells / Dmax / O=C1CCC(N2Cc3c(ccc(CNC(=O)Nc4ccc5ccccc5c4)c3O)C2=O)C(=O)N1 (centres unmarked) : value?
69.4%

CAL51 cells / Dmax / Cc1ccc(C(=O)C(=O)NCc2ccc3c(c2O)CN(C2CCC(=O)NC2=O)C3=O)cc1Cl (centres unmarked) : value?
70.9%

CAL51 cells / Dmax / CNCCOCCc1ccc(NC(=O)CCc2ccc3c(c2)CN(C2CCC(=O)NC2=O)C3=O)cc1Cl (centres unmarked) : value?
< 5%

CAL51 cells / Dmax / Cc1ccc(NC(=O)NCc2cc3c(cc2O)C(=O)N(C2CCC(=O)NC2=O)C3)cc1Cl (centres unmarked) : value?
78.5%

CAL51 cells / Dmax / O=C1CCC(N2C(=O)c3ccc(NS(=O)(=O)c4ccccc4OC(F)(F)F)cc3C2=O)C(=O)N1 (centres unmarked) : value?
83.8%

CAL51 cells / Dmax / Cc1ccc(NC(=O)CCc2ccc3c(c2)CN(C2CCC(=O)NC2=O)C3=O)cc1O (centres unmarked) : value?
25.1%

CAL51 cells / Dmax / Cc1ccc(NC(=O)NCc2ccc3c(c2O)CN(C2CCC(=O)NC2=O)C3=O)cc1C(C)C (centres unmarked) : value?
105%

CAL51 cells / Dmax / CC(C)(C)c1ccc(NC(=O)NCc2ccc3c(c2O)CN(C2CCC(=O)NC2=O)C3=O)cc1 (centres unmarked) : value?
22.1%

CAL51 cells / Dmax / Cc1ccc(NC(=O)NCc2ccc3c(c2O)CN(C2CCC(=O)NC2=O)C3=O)cc1Cl (centres unmarked) : value?
79.2%

CAL51 cells / Dmax / O=C1CCC(N2Cc3cc(NS(=O)(=O)c4ccccc4OC(F)(F)F)ccc3C2=O)C(=O)N1 (centres unmarked) : value?
42%

CAL51 cells / Dmax / O=C1CCC(N2Cc3c(ccc(CNC(=O)Nc4cccc(C5(C(F)(F)F)CC5)c4)c3O)C2=O)C(=O)N1 (centres unmarked) : value?
96.1%

CAL51 cells / Dmax / CNCCOCCc1ccc(NC(=O)NCc2ccc3c(c2)CN(C2CCC(=O)NC2=O)C3=O)cc1C(C)C (centres unmarked) : value?
64.6%

CAL51 cells / Dmax / CC(C)(C)c1ccccc1NC(=O)NCc1ccc2c(c1O)CN(C1CCC(=O)NC1=O)C2=O (centres unmarked) : value?
94.2%

CAL51 cells / Dmax / CNCCOCCc1ccc(NC(=O)NCc2ccc3c(c2)CN(C2CCC(=O)NC2=O)C3=O)cc1Cl (centres unmarked) : value?
79.4%

CAL51 cells / Dmax / Cc1ccc(NC(=O)OCc2ccc3c(c2)CN(C2CCC(=O)NC2=O)C3=O)cc1O (centres unmarked) : value?
38.8%

====

- System: WSU-DLCL2 cells
- test_name: Cell proliferation (Cell Titer Glow), WSU-DLCL2
- Type: cell-based
- particulars: Homo sapiens, WSUDLCL2; IG compounds, cell killing, 72 h
- Experimental: Exemplary isoindolinone-glutarimide (IG) compounds of Table 1a, 1b and 1c were prepared and characterized according to the Examples herein. […]
experimental_readout: IC50 (nM)
// return numeric value only (unit: nM, not printed)

Look over these answered cases.
Cc1ccc(NC(=O)NCc2ccc3c(c2O)CN(C2CCC(=O)NC2=O)C3=O)cc1C(C)C (centres unmarked) [IG-50] :: 0.75
CNCCOCCc1ccc(NC(=O)NCc2ccc3c(c2)CN(C2CCC(=O)NC2=O)C3=O)cc1Cl (centres unmarked) [IG-3] :: 66.4
Cc1ccc(NC(=O)NCc2cc3c(cc2O)C(=O)N(C2CCC(=O)NC2=O)C3)cc1Cl (centres unmarked) [IG-36] :: 4.95
Cc1c(Cl)cc(NC(=O)NCc2ccc3c(c2)CN(C2CCC(=O)NC2=O)C3=O)cc1N1CCOC1=O (centres unmarked) [IG-54] :: 6.9
Cc1ccc(NC(=O)NCc2ccc3c(c2O)CN(C2CCC(=O)NC2=O)C3=O)cc1Cl (centres unmarked) [IG-15] :: 4.25
O=C1CCC(N2Cc3c(ccc(CNC(=O)Nc4cccc(C5(C(F)(F)F)CC5)c4)c3O)C2=O)C(=O)N1 (centres unmarked) [IG-42] :: 1.43

Endpoint output: IC50 of CC(C)c1cc(NC(=O)NCc2ccc3c(c2O)CN(C2CCC(=O)NC2=O)C3=O)ccc1C(F)(F)F (centres unmarked) [IG-51] . Value?
10.2

Endpoint output: IC50 of Cc1ccc(NC(=O)NCc2ccc3c(c2)CN(C2CCC(=O)NC2=O)C3=O)cc1Cl (centres unmarked) [IG-1] . Value?
1.23

Endpoint output: IC50 of Cc1ccc(C(=O)C(=O)NCc2ccc3c(c2O)CN(C2CCC(=O)NC2=O)C3=O)cc1Cl (centres unmarked) [IG-37] . Value?
9.6

====

- Tested on: CAL51 cells
- test_name: Degradation assay evaluated by immunofluorescence staining, CAL51
- Type: cell-based, human
- particulars: Homo sapiens, CAL-51, CAL51, 6 h
Recorded Dmax values for a group of compounds are listed next.
Show the value, then the unit it is measured in.

CAL51 cells / Dmax / CNCCOCCc1ccc(NC(=O)NCc2ccc3c(c2)CN(C2CCC(=O)NC2=O)C3=O)cc1O (stereo not shown) : value?
22.7%

====

- System: SKBR3 cells
- test_name: Cell proliferation (Cell Titer Glow), SKBR3
- Type: cell-based
- particulars: Homo sapiens, SK-BR-3; IG compounds, cell killing, 72 h
Recorded pIC50 values for a group of molecules are listed next.
For clarity, pIC50 is expressed as the negative log10 of concentration in mol/L.

Look over these answered cases.
Cc1c(Cl)cc(NC(=O)NCc2ccc3c(c2)CN(C2CCC(=O)NC2=O)C3=O)cc1N1CCOC1=O (stereo not shown) [IG-54] :: 7.84
Cc1ccc(NC(=O)NCc2ccc3c(c2)CN(C2CCC(=O)NC2=O)C3=O)cc1Cl (stereo not shown) [IG-1] :: 8.75

SKBR3 cells / pIC50 / CC(C)(C)c1ccc(NC(=O)NCc2ccc3nnn(C4CCC(=O)NC4=O)c(=O)c3c2)c(O)c1 (stereo not shown) [IG-49] : value?
7.38
